Assay: Cytotoxic Profiling in NIH 3T3 Cell Line of Diverse Libraries Using Quantitative High-Throughput Screening; further: nearly all actives have a fitted effect of over 55% in size; further: potency means the concentration at half of the fitted maximal effect
Conditions: NIH 3T3 viability, CellTiter-Glo ATP luminescence, 48-72 h; series mostly up to 96.7 µM
The whole screen tested about 94,000 compounds, of which about 4,000 (4.3%) were called active. Not shown: some 29% with an inconclusive outcome. What follows is part of a selection rich in actives, with near analogues and random picks from the rest.
QUANTITY MEASURED: Potency

| MOLECULE | QUANTITY MEASURED | RESULT VALUE |
| --- | --- | --- |
| O=C(c1cn2cc(Cl)ccc2n1)N1CCc2nc(-c3ccccc3)[nH]c2C1 | Potency | inactive |
| COc1ccc2nc3n(c2c1)[C@@H](CNC(=O)c1cnccn1)COC3 | Potency | inactive |
| CCOCCOC1CCN(C(=O)NCc2ccc(F)cc2)CC1 | Potency | inactive |
| CC(C)(C)CC(=O)NC1CCN(c2cnn(CC3CC3)c(=O)c2)CC1 | Potency | inactive |

In plain terms, `CC(C)(C)c1nc(C(=O)N2CCOCC2)n2ccccc12` has a documented Potency of inactive

In plain terms, `COc1ccc(CCc2nc(NC(=O)Cn3nc4c(cc3=O)CCCCC4)n[nH]2)cc1` has a documented Potency of inactive

In plain terms, `Cc1cccc(C)c1-c1nc(C(=O)N2CCN(c3ncccn3)CC2)n2ccccc12` has a documented Potency of 39.8 µM (active)

In plain terms, `COc1ccc2nc3n(c2c1)[C@@H](CNC1CCCCC1)COC3` has a documented Potency of 39.8 µM (active)

In plain terms, `Cc1cccc(C(=O)N[C@@H]2CN(c3ncccn3)C[C@H]2CO)n1` has a documented Potency of inactive

In plain terms, `COc1ncccc1CNC[C@H]1COCc2nc3cc(C(F)(F)F)ccc3n21` has a documented Potency of inactive

In plain terms, CCN1CCN(C(=O)C2CCCCN2Cc2ccc(-c3cc(F)ccc3OC)cc2)CC1 (stereo unspecified) has a documented Potency of 35.5 µM (active)

In plain terms, `COCCNc1ncc(C(=O)O)c(C)n1` has a documented Potency of inactive

In plain terms, `COc1nccnc1NC1CCN(C(=O)NCc2ccccc2)CC1` has a documented Potency of inactive

In plain terms, Cc1ccc(C2Cn3nnc(-c4noc(-c5ccccc5C)n4)c3CO2)cc1 (stereo unspecified) has a documented Potency of inactive

In plain terms, `COc1ccccc1C(=O)N1CCC2(CC1)C(=NC1CCCCC1)NC(=O)N2c1cccnc1` has a documented Potency of inactive

In plain terms, `CC(=O)N1CCC(N2CCC[C@H]2c2nc(-c3ccc(-c4cncnc4)nc3)no2)CC1` has a documented Potency of inactive

###

Assay: Cytotoxic Profiling in NIH 3T3 Cell Line of Diverse Libraries Using Quantitative High-Throughput Screening; further: nearly all actives have a fitted effect of over 55% in size
Settings: NIH 3T3 viability, CellTiter-Glo ATP luminescence, 48-72 h; series mostly up to 96.7 µM
Out of some 94,000 compounds screened, about 4,000 (4.3%) were called active. About 29% were inconclusive and are not listed. Calls follow the shape of the dose curve; as a rule, active = well fitted inhibition curve with a large enough effect; inconclusive = small, poorly fitted or top-dose-only effect; inactive = no such curve, though single readings can be large or run the other way. Shown is part of a subset that was picked to be rich in actives.
Outcome field: choose from 1 (active), -1 (inactive)

A selection of reference data follows.
| COMPOUND | ANSWER LABEL |
| --- | --- |
| Cc1noc(-c2ccccc2OC2CCN(C(=O)c3cnccc3C)C2)n1 (stereo unspecified) | -1 |
| Cc1cccc(C(=O)N2CCC(Oc3ccc(-c4noc(C(C)C)n4)cc3)C2)c1 (stereo unspecified) | -1 |
| COCc1nc(-c2ccc(OC3CNC3)cc2)no1 | -1 |
| CN(C)CCNC(=O)C(C)(C)Oc1nn(Cc2cccc(Cl)c2)c2ccccc12 | 1 |
| c1ccc(-c2noc(-c3ccccc3OC3CCNC3)n2)cc1 (stereo unspecified) | 1 |

Now let's try a different one.
// outcome(item) with item = `O=C(c1ccoc1)N1CC(Oc2ccc(-c3nc(-c4ccccc4)no3)cc2)C1` -1

###

Assay: Cytotoxic Profiling in NIH 3T3 Cell Line of Diverse Libraries Using Quantitative High-Throughput Screening; further: nearly all actives have a fitted effect of over 55% in size; further: potency means the concentration at half of the fitted maximal effect
Conditions: NIH 3T3 viability, CellTiter-Glo ATP luminescence, 48-72 h; series mostly up to 96.7 µM
Hit rate of the full screen: of about 94,000 compounds, about 4,000 (4.3%) were called active. Another 29% or so got no clear call; they are omitted. The entries come from a sample that favours actives as a whole.
QUANTITY MEASURED: Potency

Consider the worked cases shown below.
| COMPOUND | Potency |
| --- | --- |
| O=C([C@@H]1C[C@H](F)CN1C(=O)Cc1ccccc1Cl)N1CCCCC1 | inactive |
| COc1cccc2c1CCN=C2C[C@H]1CN(C(=O)C(C)(C)C)CC[C@H]1CC(=O)O | inactive |
| COc1ccc(CN2C(=O)CO[C@H]3CN(C(=O)C4CC4)C[C@H]32)cc1 | inactive |
| CC1(C)[C@H](Cc2cc(CN3CCCCC3)on2)C[C@@H]1NS(C)(=O)=O | inactive |
| Cc1ccc(C)c(S(=O)(=O)c2nnn3c2nc(NCc2ccc(F)cc2)c2ccccc23)c1 | 28.2 µM (active) |
| COCc1cc(C[C@@H]2CC[C@H](O)[C@@H](CN(C)C)O2)no1 | inactive |

In plain terms, `COc1ccc(CN2C(=O)CO[C@H]3CN(Cc4cccnc4)C[C@H]32)cc1` has a documented Potency of inactive

In plain terms, `O=C(C1CCN(Cc2ccccc2-c2cccnc2)CC1)N1CCN(Cc2ccccc2)CC1` has a documented Potency of inactive

In plain terms, O=C1NCc2ccccc2CC12CCN(Cc1ccc(CO)o1)C2 (stereo not given) has a documented Potency of inactive

In plain terms, `OC[C@@H]1O[C@H](CNC2CCOCC2)[C@H](N2CCc3ccccc3C2)[C@@H]1O` has a documented Potency of inactive

In plain terms, `COCc1cc(C[C@@H]2CC[C@H](O)[C@@H](CN(CC3CCCCC3)CC3CCCCC3)O2)no1` has a documented Potency of inactive

In plain terms, `Cc1cccc(C)c1-c1nc(C(=O)NCc2ccc(F)cc2)n2ccccc12` has a documented Potency of inactive

###

Assay: Cytotoxic Profiling in NIH 3T3 Cell Line of Diverse Libraries Using Quantitative High-Throughput Screening; further: nearly all actives have a fitted effect of over 55% in size
Conditions: NIH 3T3 viability, CellTiter-Glo ATP luminescence, 48-72 h; series mostly up to 96.7 µM
Out of some 94,000 compounds screened, about 4,000 (4.3%) were called active. Roughly 29% stayed inconclusive and do not appear here. Calls follow the shape of the dose curve; as a rule, active = well fitted inhibition curve with a large enough effect; inconclusive = small, poorly fitted or top-dose-only effect; inactive = no such curve, though single readings can be large or run the other way. The list comes from a sample in which actives are over-represented; it also holds close analogues and randomly drawn compounds.
Outcome field: choose from active, inactive

A selection of reference data follows.
| COMPOUND | ANSWER LABEL |
| --- | --- |
| O=C(Nc1ccc(Oc2ccccc2)cc1)O[C@@H]1CO[C@H]2[C@@H]1OC[C@@H]2NCC1CC1 | inactive |
| OC1(CN2CCC(CCn3cccn3)CC2)CNCCOC1 (stereo unspecified) | inactive |
| Cc1noc([C@@H]2CN(S(=O)(=O)c3cccs3)C[C@H]2C(N)=O)n1 | inactive |
| COc1cccc(NC(=O)c2ccc3c(c2)NC(C)(COc2ccccc2)CO3)c1 (stereo unspecified) | active |
| CC(C)N1CC2(C1)C(=O)N(Cc1cccc(Cl)c1)C(=O)[C@@H]1C[C@@H](O)CN12 | inactive |
| O=C(NCC1CCOCC1)c1ccc2[nH]ccc2c1 | inactive |
| CCc1cc(N2CCN(CC3(O)CCCNC3)CC2)ncn1 (stereo unspecified) | inactive |
| COc1ccc(C(=O)Nc2cccc(-c3nnc4n3CCCC4)c2)cc1 | inactive |
| COCCOCc1nc(C2CCN(C(=O)c3ccncc3)CC2)no1 | inactive |
| COc1ccc(Cn2c(C3CCN(C(=O)Cc4ccsc4)CC3)n[nH]c2=O)cc1 | inactive |

Now let's try a different one.
// outcome(item) with item = `CCCNC(=O)N1CCC(Cn2c(C)cnc2-c2cccnc2)CC1` inactive

###

Assay: Cytotoxic Profiling in NIH 3T3 Cell Line of Diverse Libraries Using Quantitative High-Throughput Screening; further: nearly all actives have a fitted effect of over 55% in size
Details: NIH 3T3 viability, CellTiter-Glo ATP luminescence, 48-72 h; series mostly up to 96.7 µM
Out of some 94,000 compounds screened, about 4,000 (4.3%) were called active. Roughly 29% stayed inconclusive and do not appear here. The call rests on the fitted dose curve; in most records, active means well fitted inhibition curve with a large enough effect; inconclusive means small, poorly fitted or top-dose-only effect; inactive means no such curve, though single readings can be large or run the other way. What follows is part of a selection rich in actives, with near analogues and random picks from the rest.
Outcome field: choose from active, inactive

A selection of reference data follows.
| COMPOUND | ANSWER LABEL |
| --- | --- |
| Cn1cc(CN2CCOC[C@H](Oc3ccc(S(C)(=O)=O)cc3)C2)c2ccccc21 | active |
| C=CCNC(=O)c1ccc2ccnn2c1 | inactive |
| CCCCC(=O)N1CCC(OC2CCN(S(C)(=O)=O)CC2)CC1 | inactive |
| O=C(c1cccnc1)N1CCC(Cc2nc(C3CCOCC3)no2)CC1 | inactive |
| CCOc1ncccc1CNC(=O)c1cc(S(N)(=O)=O)ccc1F | inactive |
| Cc1cnc(C2CCC2)n1CCNS(=O)(=O)c1cc(F)ccc1F | inactive |
| Cc1ccc(F)cc1S(=O)(=O)N1CCn2c(nn(CC3CC3)c2=O)C1 | inactive |
| Cc1ccc(CN2CCC(C3CCN(S(C)(=O)=O)CC3)C2)nc1 (stereo unspecified) | inactive |

// outcome(item) with item = `CN(C)Cc1cn(C[C@H]2C[C@@H](NS(=O)(=O)c3ccccc3)[C@H](O)[C@@H]2O)nn1` inactive

// outcome(item) with item = `COc1ccc(-c2cccc(C(=O)N3CCN(C(=O)c4ccc(Cl)nc4)CC3)c2)nn1` inactive

// outcome(item) with item = `COCc1nc(CCNC(=O)Cc2c(C)noc2C)no1` inactive
